system: anaesthetized cats; test: Determination of the effect on blood pressure and positive inotropic activity in anaesthetized cats; assay type: in vivo; settings: 0.3 mg/kg i.v.; anaesthetized cats; average of 2 cats
// reported Duration of effect (half life) per item
Reply numerically in min, unit not repeated.

                                   compound  test_value
0  CCN1C(=O)OC(C)(C)c2cc3[nH]c(-c4ccco4)nc3cc21 [D]           4
1  CC1(C)OC(=O)Nc2cc3nc(-c4ccncc4)[nH]c3cc21 [A]          18
2  CCN1C(=O)OC(C)(C)c2cc3[nH]c(-c4ccncc4)nc3cc21 [B]          16
3  CCCc1nc2cc3c(cc2[nH]1)C(C)(C)OC(=O)N3 [C]          11
4  CC1(C)OC(=O)Nc2cc3nc(-c4cccs4)[nH]c3cc21 [F]          10

Please find the next compound below.
Q: Would you mind telling me what Duration of effect (half life) value was observed for CC1(C)OC(=O)Nc2cc3nc(-c4ccco4)[nH]c3cc21 [E] ?
Ans: 7

Every entry's value here was drawn from patent US4831027A.
